For each entry below, report its Fold Induction, Z3 Assay, 33 uM value.
target-entity: Bombyx mori EcR (VP16 fusion, CVBE switch construct) (Bombyx mori)
Sequence (P49881 86-606): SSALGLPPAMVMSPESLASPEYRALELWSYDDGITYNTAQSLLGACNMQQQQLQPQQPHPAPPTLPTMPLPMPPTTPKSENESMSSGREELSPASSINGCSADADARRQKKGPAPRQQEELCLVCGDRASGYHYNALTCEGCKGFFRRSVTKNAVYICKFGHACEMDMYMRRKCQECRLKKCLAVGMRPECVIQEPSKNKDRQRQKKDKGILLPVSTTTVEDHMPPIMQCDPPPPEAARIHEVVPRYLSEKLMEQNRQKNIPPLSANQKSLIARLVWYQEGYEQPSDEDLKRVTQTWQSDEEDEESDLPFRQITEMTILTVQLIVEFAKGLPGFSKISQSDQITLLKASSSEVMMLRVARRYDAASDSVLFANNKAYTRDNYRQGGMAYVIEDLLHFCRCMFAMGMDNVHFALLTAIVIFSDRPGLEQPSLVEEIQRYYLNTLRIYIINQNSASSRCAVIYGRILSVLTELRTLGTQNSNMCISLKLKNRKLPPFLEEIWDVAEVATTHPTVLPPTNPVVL
Sequence (P19793 1-462 partner): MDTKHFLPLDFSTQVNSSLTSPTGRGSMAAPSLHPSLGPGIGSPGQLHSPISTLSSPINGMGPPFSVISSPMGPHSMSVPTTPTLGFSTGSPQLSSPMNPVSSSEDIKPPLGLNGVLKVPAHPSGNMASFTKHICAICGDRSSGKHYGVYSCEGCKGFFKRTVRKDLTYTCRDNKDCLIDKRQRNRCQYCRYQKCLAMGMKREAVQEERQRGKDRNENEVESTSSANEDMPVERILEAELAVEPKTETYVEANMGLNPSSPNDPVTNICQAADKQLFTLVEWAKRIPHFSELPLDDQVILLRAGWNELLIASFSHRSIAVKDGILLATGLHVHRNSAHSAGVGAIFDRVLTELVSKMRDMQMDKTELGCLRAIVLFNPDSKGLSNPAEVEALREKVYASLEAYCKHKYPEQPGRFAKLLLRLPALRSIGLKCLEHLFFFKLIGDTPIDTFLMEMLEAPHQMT
experiment: Z3 Assay (HEK-293 cells with CVBE and 6XEcRE LacZ, β-galactosidase reporter)
condition-description: 33 uM ligand; ligand treated / DMSO treated cells; average of two wells

The following compounds have reported results that may help.
compound | Fold Induction, Z3 Assay, 33 uM
CCc1c(OC)cccc1C(=O)NN(C(=O)c1cc(OC)c(OC)c(OC)c1)C(C)(C)C | 430
COc1cc(F)ccc1C(=O)N(NC(=O)c1cccc(OC)c1C)C(C)(C)C | 146
CCc1cccc(C(=O)NN(C(=O)c2cc(C)cc(C)c2)C(C)(C)C)c1C | 1089
CCC(N(NC(=O)c1cccc(C)c1C)C(=O)c1cccc(C)c1)C(C)(C)C (centres unmarked) | 200
CCc1c(OC)cccc1C(=O)NN(C(=O)c1cc(C)cc(C)c1)C(C)(C)C#N | 1588
CC(=O)Oc1cccc(C(=O)NN(C(=O)c2cc(C)cc(C)c2)C(C)(C)C)c1C | 145
Cc1c(C(=O)NN(C(=O)c2cc(F)c(F)c(F)c2F)C(C)(C)C)ccc2c1CCCO2 | 803

// switching to the query compound
GET Fold Induction, Z3 Assay, 33 uM | system: Bombyx mori EcR (VP16 fusion, CVBE switch construct) (Bombyx mori) | item: "Cc1cc(C)cc(C(=O)N(NC(=O)c2ccc3c(c2F)COCO3)C(C)(C)C)c1"
802
